- assay-system: EGFR (Homo sapiens, UniProt P00533)
- Construct: host or cells: A431
- Sequence (P00533 25-1210): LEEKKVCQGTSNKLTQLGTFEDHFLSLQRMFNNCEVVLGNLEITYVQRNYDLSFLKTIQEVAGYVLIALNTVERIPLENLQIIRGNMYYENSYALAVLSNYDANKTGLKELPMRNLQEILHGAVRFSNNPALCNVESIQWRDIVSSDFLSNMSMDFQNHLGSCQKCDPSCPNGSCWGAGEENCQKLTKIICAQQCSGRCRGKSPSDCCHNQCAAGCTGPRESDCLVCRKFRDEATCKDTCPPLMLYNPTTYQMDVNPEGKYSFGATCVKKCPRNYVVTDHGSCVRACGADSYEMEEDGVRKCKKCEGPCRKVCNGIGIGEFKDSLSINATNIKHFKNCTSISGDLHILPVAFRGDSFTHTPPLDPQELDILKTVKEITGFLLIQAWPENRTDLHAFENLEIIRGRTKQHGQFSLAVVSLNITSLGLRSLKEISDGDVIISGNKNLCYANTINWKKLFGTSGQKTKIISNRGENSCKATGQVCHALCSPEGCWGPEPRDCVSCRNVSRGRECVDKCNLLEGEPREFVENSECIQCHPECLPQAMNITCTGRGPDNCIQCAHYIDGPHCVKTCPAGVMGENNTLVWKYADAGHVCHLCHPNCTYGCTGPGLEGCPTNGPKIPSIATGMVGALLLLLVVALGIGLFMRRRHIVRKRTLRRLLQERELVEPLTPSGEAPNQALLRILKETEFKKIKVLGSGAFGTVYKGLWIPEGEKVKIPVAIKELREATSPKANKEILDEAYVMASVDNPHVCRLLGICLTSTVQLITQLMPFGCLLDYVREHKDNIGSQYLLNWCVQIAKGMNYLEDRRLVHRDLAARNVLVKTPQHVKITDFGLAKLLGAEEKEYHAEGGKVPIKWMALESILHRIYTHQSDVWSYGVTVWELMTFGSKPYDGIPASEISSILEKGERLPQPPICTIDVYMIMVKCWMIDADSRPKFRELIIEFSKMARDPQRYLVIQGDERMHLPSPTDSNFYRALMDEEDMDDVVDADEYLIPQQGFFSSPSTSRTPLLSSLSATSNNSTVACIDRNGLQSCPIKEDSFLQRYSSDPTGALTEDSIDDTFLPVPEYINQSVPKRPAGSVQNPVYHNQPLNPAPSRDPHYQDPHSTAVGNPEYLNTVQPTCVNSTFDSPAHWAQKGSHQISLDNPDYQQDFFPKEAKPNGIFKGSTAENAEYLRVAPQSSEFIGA
- experiment-summary: EGFR in-cell Western (ICW) screening protocol (EGFR inhibition assay)
- Format: cell-based
- measurement-conditions: Table 10; % Inhibition of EGF dependent EGFR phosphorylation in A431 cells; compound 125 μM in assay
Reported ICW assay by item:
Could you keep your reply to the number by itself?

See these solved cases before continuing.
{"compound": "O=S(=O)(Nc1ccc(Cl)cc1)c1ccc(NC(=S)Nc2cccc(C(F)(F)F)c2)cc1", "ICW assay": 129.155}
{"compound": "O=S(=O)(Nc1cc(Cl)cc(Cl)c1)c1ccc(NC(=S)Nc2ccc(Cl)c(Cl)c2)cc1", "ICW assay": 123.946}
{"compound": "O=S(=O)(Nc1ccc(Cl)cc1)c1ccc(NC(=S)Nc2ccccc2C(F)(F)F)cc1", "ICW assay": 41.4281}
{"compound": "CC1CCc2cc(F)ccc2N1S(=O)(=O)c1ccc(NC(=S)Nc2ccc(F)c(Cl)c2)cc1 (stereo not drawn)", "ICW assay": 46.1658}
{"compound": "CC1CCc2cc(F)ccc2N1S(=O)(=O)c1ccc(NC(=S)Nc2ccc(Br)cc2Cl)cc1 (stereo not drawn)", "ICW assay": 29.02}
{"compound": "CC(C)c1ccc(NC(=S)Nc2ccc(S(=O)(=O)Nc3ccccc3)cc2)cc1", "ICW assay": 47.471}
{"compound": "COc1ccc(C)cc1NC(=S)Nc1ccc(S(=O)(=O)Nc2cc(Cl)cc(Cl)c2)cc1", "ICW assay": 26.0767}
{"compound": "CC1CCc2cc(F)ccc2N1S(=O)(=O)c1ccc(NC(=S)Nc2ccc3c(c2)OCO3)cc1 (stereo not drawn)", "ICW assay": 32.6456}

Turning now to a further compound:
Fill blank: measured ICW assay of the compound COc1cccc(NC(=S)Nc2ccc(S(=O)(=O)Nc3ccc(Cl)cc3)cc2)c1 is ____.
34.0556
